- Test system: F508delCFTR (Homo sapiens, UniProt P13569, DEL508-508)
- Construct: expressed in transfected cells; host or cells: CFBE41o- human lung-derived epithelial cell line, doxycycline-inducible expression
- Sequence (P13569 with tags, fused parts or gaps DEL508-508): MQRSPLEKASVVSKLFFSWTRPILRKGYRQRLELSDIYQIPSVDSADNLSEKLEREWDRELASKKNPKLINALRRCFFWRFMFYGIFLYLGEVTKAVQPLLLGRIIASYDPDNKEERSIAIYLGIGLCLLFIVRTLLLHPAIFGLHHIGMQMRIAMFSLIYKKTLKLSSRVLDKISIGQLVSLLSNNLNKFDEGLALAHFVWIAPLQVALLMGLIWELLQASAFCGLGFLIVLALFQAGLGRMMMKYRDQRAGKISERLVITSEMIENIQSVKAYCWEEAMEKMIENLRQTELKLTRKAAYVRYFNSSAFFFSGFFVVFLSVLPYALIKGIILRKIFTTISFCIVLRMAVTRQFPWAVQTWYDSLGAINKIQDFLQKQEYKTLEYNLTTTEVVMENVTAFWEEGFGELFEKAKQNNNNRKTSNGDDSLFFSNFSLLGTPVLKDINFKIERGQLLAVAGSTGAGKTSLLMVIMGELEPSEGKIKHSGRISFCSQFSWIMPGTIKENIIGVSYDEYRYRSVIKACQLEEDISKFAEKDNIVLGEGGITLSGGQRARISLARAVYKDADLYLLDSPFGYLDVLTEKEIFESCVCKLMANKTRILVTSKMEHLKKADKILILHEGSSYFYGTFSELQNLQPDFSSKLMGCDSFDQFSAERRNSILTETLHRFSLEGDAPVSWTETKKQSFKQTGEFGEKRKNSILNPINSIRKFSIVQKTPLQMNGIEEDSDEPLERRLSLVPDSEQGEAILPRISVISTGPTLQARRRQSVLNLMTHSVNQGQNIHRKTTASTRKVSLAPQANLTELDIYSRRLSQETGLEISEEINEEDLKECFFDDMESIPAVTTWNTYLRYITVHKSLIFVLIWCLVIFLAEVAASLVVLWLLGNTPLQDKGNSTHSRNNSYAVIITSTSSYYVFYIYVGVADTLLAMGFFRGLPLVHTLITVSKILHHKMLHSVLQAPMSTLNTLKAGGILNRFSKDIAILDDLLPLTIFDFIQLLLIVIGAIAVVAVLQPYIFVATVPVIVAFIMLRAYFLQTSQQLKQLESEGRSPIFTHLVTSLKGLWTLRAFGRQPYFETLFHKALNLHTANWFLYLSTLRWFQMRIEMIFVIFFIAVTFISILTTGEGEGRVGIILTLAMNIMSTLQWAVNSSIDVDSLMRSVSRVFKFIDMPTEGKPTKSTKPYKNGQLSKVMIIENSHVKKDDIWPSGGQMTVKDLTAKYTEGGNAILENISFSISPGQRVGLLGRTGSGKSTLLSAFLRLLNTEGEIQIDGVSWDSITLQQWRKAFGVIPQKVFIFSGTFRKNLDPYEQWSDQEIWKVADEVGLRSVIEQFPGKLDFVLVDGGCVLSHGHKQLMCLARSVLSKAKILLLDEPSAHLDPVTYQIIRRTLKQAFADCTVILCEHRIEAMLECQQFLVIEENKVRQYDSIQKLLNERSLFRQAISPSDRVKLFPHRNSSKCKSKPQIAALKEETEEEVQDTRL
- Procedure summary: Cell Surface Expression-Horse Radish Peroxidase (CSE-HRP) assay in CFBE41o-F508delCFTR-HRP cells
- Format: cell-based
- Conditions used: without co-corrector; CFBE41o-F508delCFTR-HRP cells, 18-24 hours at 33° C., luminescence; read-out: EC50 (without co-corrector)
Measurement name: EC50 (nM)

Here's what some known entries look like.
{"columns": ["Compound", "Measurement unit", "EC50"],
 "data": [
  ["COc1cncc([C@H]2C[C@@]2(C(=O)NS(=O)(=O)c2cccc3nc(C)ccc23)c2cc(C)ccc2OC)c1 (single isomer, unassigned)", "nM", 3320],
  ["COc1ccc(C)cc1[C@]1(C(=O)NS(=O)(=O)c2cccc3nc(C)ccc23)C[C@@H]1c1ccc(C)nc1OC (single isomer, unassigned)", "nM", 2210],
  ["COc1ccc(C)cc1[C@@]1(C(=O)NS(=O)(=O)c2cccc3nc(C)ccc23)C[C@H]1c1cccnc1OC (racemic) [Example 40]", "nM", 1550]
]}

A = COc1ccc(C)cc1[C@@]1(C(=O)NS(=O)(=O)c2cccc3nc(C)ccc23)C[C@H]1c1ccccn1
B = COc1ccc(C)cc1[C@@]1(C(=O)NS(=O)(=O)c2cccc3nc(C)ccc23)C[C@H]1c1cncc(C)n1 (single isomer, unassigned) [Example 45]
C = COc1ccc(C)cc1[C@]1(C(=O)NS(=O)(=O)c2cccc3nc(C)ccc23)C[C@@H]1c1cccc(C(F)(F)F)c1 (racemic) [Example 12]
Hey, quick one: sort these by EC50, low to high? Arrange the labels as the request states and list them.
C, A, B
(C: 479 nM, A: 2480 nM, B: 6150 nM)

----------
- Test system: F508delCFTR (Homo sapiens, UniProt P13569, DEL508-508)
- Construct: expressed in transfected cells; host or cells: CFBE41o- human lung-derived epithelial cell line, doxycycline-inducible expression
- Procedure summary: Cell Surface Expression-Horse Radish Peroxidase (CSE-HRP) assay in CFBE41o-F508delCFTR-HRP cells
- Type: cell-based
- Conditions used: with co-corrector (2 μM); CFBE41o-F508delCFTR-HRP cells, 18-24 hours at 33° C., luminescence; read-out: EC50 (with co-corrector)
Measurement name: EC50 (nM)

{"columns": ["Molecule", "Observed value"],
 "data": [
  ["COc1ccc([C@@H]2C[C@]2(C(=O)NS(=O)(=O)c2cccc3nc(C)ccc23)c2cc(C)ccc2OC)cn1 [Example 33]", 906],
  ["COc1ccc(C)cc1[C@]1(C(=O)NS(=O)(=O)c2cccc3nc(C)ccc23)C[C@@H]1c1ccccc1C [Example 34]", 385],
  ["COc1cnc([C@H]2C[C@@]2(C(=O)NS(=O)(=O)c2cccc3nc(C)ccc23)c2cc(C)ccc2OC)c(OC)n1 [Example 82]", 351],
  ["COc1ccc(C)cc1[C@]1(C(=O)NS(=O)(=O)c2cccc3nc(C)ccc23)C[C@@H]1c1ccc(C)nc1 [Example 11]", 2820],
  ["COc1ncc([C@H]2C[C@@]2(C(=O)NS(=O)(=O)c2cccc3nc(C)ccc23)c2cc(C)ccc2OC)cn1 (single isomer, unassigned) [Example 38]", 1810],
  ["COc1ccc(C)cc1[C@]1(C(=O)NS(=O)(=O)c2cccc3nc(C)ccc23)C[C@@H]1c1cccc(OC(C)C)n1 [Example 97]", 359],
  ["COc1ccc(C)cc1[C@]1(C(=O)NS(=O)(=O)c2cccc3nc(C)ccc23)C[C@@H]1c1cccc(C(F)(F)F)c1 (racemic) [Example 12]", 327],
  ["COc1ccc(C)cc1[C@]1(C(=O)NS(=O)(=O)c2cccc3nc(C)ccc23)C[C@@H]1c1ccccc1F (single isomer, unassigned) [Example 25]", 388],
  ["COc1cccc([C@@H]2C[C@]2(C(=O)NS(=O)(=O)c2cccc3nc(C)ccc23)c2cc(C)ccc2OC)c1 (racemic) [Example 15]", 698],
  ["CCOc1cnc([C@@H]2C[C@]2(C(=O)NS(=O)(=O)c2cccc3nc(C)ccc23)c2cc(C)ccc2OC)cn1 (racemic) [Example 62]", 474]
]}

P = COc1cnc([C@@H]2C[C@]2(C(=O)NS(=O)(=O)c2cccc3nc(C)ccc23)c2cc(C)ccc2OC)cn1 (single isomer, unassigned) [Example 47]
Q = COc1ncc([C@@H]2C[C@]2(C(=O)NS(=O)(=O)c2cccc3nc(C)ccc23)c2cc(C)ccc2OC)cn1 (racemic) [Example 36]
Look at P and Q . Which one has the lower recorded EC50 number? Your choice should be expressed through its label.
P
(P: 1280 nM, Q: 2480 nM)

----------
- Test system: F508delCFTR (Homo sapiens, UniProt P13569, DEL508-508)
- Construct: expressed in transfected cells; host or cells: CFBE41o- human lung-derived epithelial cell line, doxycycline-inducible expression
- Procedure summary: Cell Surface Expression-Horse Radish Peroxidase (CSE-HRP) assay in CFBE41o-F508delCFTR-HRP cells
- Format: cell-based
- Conditions used: with co-corrector (2 μM); CFBE41o-F508delCFTR-HRP cells, 18-24 hours at 33° C., luminescence; read-out: EC50 (with co-corrector)
Measurement name: EC50 (µM)

{"columns": ["Compound", "Measurement name", "Measurement unit", "Observed value"],
 "data": [
  ["COc1ccc(C)cc1[C@@]1(C(=O)NS(=O)(=O)c2cccc3nc(C)ccc23)C[C@H]1c1ccccc1F (racemic) [Example 22]", "EC50", "µM", 0.844],
  ["COc1nccc([C@H]2C[C@@]2(C(=O)NS(=O)(=O)c2cccc3nc(C)ccc23)c2cc(C)ccc2OC)n1 (single isomer, unassigned) [Example 98]", "EC50", "µM", 0.804],
  ["COCc1cccc([C@H]2C[C@@]2(C(=O)NS(=O)(=O)c2cccc3nc(C)ccc23)c2cc(C)ccc2OC)n1 [Example 90]", "EC50", "µM", 0.9]
]}

----------
- Test system: F508del/F508del CFTR (Homo sapiens, UniProt P13569, DEL508-508)
- Construct: cells isolated from CF patients with the homozygous mutation; endogenous in cells
- Procedure summary: Trans-Epithelial Current Clamp (TECC) assay using primary human bronchial epithelial cells
- Conditions used: primary hBE cells homozygous F508del/F508del; test C2 corrector with co-corrector and potentiator, 18-24 hours at 37° C.; equivalent CFTR current (IEQ)/AUC
pEC50: −log10 of the molar value.
Measurement name: pEC50

Solved cases below.
{"columns": ["Molecule", "Test system", "pEC50"],
 "data": [
  ["COc1ccc(C)cc1[C@]1(C(=O)NS(=O)(=O)c2cccc3nc(C)ccc23)C[C@@H]1c1cnc(OC)c(OC)n1", "F508del/F508del CFTR (Homo sapiens, UniProt P13569, DEL508-508)", 7.80],
  ["COc1ccc(C)cc1[C@]1(C(=O)NS(=O)(=O)c2cccc3nc(C)ccc23)C[C@@H]1c1ccc(C(C)C)nc1OC (single isomer, unassigned)", "F508del/F508del CFTR (Homo sapiens, UniProt P13569, DEL508-508)", 7.90]
]}

P = COc1ccc([C@H]2C[C@@]2(C(=O)NS(=O)(=O)c2cccc3nc(C)ccc23)c2cc(C)ccc2OC)c(C)n1
Q = CCOc1cccc([C@@H]2C[C@]2(C(=O)NS(=O)(=O)c2cccc3nc(C)ccc23)c2cc(C)ccc2OC)n1
Quick one: lower pEC50, P or Q ? Response format: the label of the selected entry.
P
(P: 7.87, Q: 8.07)

----------
- Test system: F508delCFTR (Homo sapiens, UniProt P13569, DEL508-508)
- Construct: expressed in transfected cells; host or cells: CFBE41o- human lung-derived epithelial cell line, doxycycline-inducible expression
- Procedure summary: Cell Surface Expression-Horse Radish Peroxidase (CSE-HRP) assay in CFBE41o-F508delCFTR-HRP cells
- Assay type: cell-based
- Conditions used: without co-corrector; normalized to on-plate positive control corrector (2 μM)
Measurement name: Maximum % activity (without co-corrector) (%)

Some solved cases for reference:
{"columns": ["Compound", "Observed value"],
 "data": [
  ["COc1ccc(C)cc1[C@@]1(C(=O)NS(=O)(=O)c2cccc3nc(C)ccc23)C[C@H]1c1cncc(C)n1 (single isomer, unassigned) [Example 45]", 128],
  ["COc1ccc(C)cc1[C@@]1(C(=O)NS(=O)(=O)c2cccc3nc(C)ccc23)C[C@H]1c1cccnc1OC (racemic) [Example 40]", 448],
  ["COc1cnc([C@H]2C[C@@]2(C(=O)NS(=O)(=O)c2cccc3nc(C)ccc23)c2cc(C)ccc2OC)c(OC)n1 [Example 82]", 937]
]}

P = COc1ccc(C)cc1[C@@]1(C(=O)NS(=O)(=O)c2cccc3nc(C)ccc23)C[C@H]1c1cnc(C)cn1 (single isomer, unassigned) [Example 91]
Q = COc1ccc([C@@H]2C[C@]2(C(=O)NS(=O)(=O)c2cccc3nc(C)ccc23)c2cc(C)ccc2OC)c(OC)n1 (single isomer, unassigned) [Example 93]
Two entries are listed, P and Q . Which one carries the higher Maximum % activity (without co-corrector)? I would appreciate it if you answered with the label of your choice.
Q
